System: Oocyte
Experiment: Allosteric modulation of rat gamma-aminobutyric acid receptor A alpha1beta2gamma2S expressed in Xenopus oocytes assessed as potentiation of GABA-mediated chloride current at 0.1 to 1000 uM after 20 secs by voltage clamp assay
Type: cell-based
Threshold check on Emax: strictly below 200% is 1.0; on or above 200% is 0.0.

C=C1CC/C=C(\C)CC[C@@H](C(C)C)C(=O)C1 ... 0.0
C=C[C@]1(C)CC[C@@H](C(C)C)C(=O)C1=C(C)C ... 1.0
C[C@@H]1CCC2=C1C=C1C(C)(C)OO[C@@]1(O)C[C@H]2C ... 0.0
C=C[C@]1(C)CC[C@@H](C(C)C)C(=O)[C@H]1C(=C)C ... 0.0
CC1=CC[C@]2(CC1=O)[C@@H](C)CC[C@H]2C(C)C ... 0.0

# input for lookup
Inquiry: Take the molecule C/C=C\c1cc(OC)c(OC)cc1OC [CIS-ASARONE] and say whether its Emax is less than 200%.
Reply text: 0.0
